Data credit: the supplement of paper PMC12667976

AIRE transcriptional activation functional score values for the variants below.
B1: library; numbered along this chain (parent)
chain: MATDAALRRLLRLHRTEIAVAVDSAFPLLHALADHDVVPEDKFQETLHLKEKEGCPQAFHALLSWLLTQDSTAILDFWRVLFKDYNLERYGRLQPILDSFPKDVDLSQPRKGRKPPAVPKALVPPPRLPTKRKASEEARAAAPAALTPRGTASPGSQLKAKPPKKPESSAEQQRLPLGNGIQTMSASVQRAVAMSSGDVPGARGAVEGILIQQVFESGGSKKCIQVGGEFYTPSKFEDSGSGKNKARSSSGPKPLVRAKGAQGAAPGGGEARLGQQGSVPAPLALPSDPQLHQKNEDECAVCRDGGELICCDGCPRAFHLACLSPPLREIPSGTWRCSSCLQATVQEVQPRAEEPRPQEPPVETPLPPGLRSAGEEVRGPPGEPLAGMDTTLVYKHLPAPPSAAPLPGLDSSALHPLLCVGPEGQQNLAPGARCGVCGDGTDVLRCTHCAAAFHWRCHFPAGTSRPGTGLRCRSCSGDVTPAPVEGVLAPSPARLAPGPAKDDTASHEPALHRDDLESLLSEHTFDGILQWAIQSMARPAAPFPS

Variants of: B1
Experiment: AIRE transcriptional activation functional score (insulin promoter-GFP; nonsense median 0, synonymous median 1) (normalised score); higher = higher AIRE activity (more reporter activation)
Settings: with insulin promoter-GFP reporter in HEK293
Simply state the number, no unit and no words.

L255A: 0.9
R190I: 0.118
R433K: 1.03
S169T: -0.214
P95T: 1.34
P483T: 1.46
D23P: -0.613
Q276P: 1.05
H454T: 0.0122
R127N: 1.09

Quickly give me recorded AIRE transcriptional activation functional score for `S24Q`
-0.0656
